- tested-on: panel of 255 wild-type kinases (Homo sapiens, UniProt Q9UQM7)
- Sequence (Q9UQM7 whole entry): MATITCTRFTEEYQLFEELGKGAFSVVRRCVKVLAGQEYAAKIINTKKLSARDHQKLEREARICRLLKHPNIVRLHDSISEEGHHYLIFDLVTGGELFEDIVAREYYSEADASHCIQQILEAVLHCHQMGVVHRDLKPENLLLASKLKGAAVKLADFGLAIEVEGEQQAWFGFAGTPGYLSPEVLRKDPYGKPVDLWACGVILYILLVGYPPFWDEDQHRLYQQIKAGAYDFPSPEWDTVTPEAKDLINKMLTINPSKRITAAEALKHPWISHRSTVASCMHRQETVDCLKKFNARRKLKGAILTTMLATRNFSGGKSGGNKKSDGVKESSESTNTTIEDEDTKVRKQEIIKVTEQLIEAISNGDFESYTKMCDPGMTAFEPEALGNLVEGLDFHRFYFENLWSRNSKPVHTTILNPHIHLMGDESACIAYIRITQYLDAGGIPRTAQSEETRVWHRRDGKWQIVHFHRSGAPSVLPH
- protocol-details: Kinase panel profiling at 1 µmol/L (MSA or IMAP), percentage inhibition
- Format: biochemical
- measurement-conditions: CaMK2α kinase assay; 1 µmol/L single concentration; read-out: %-inhibition CaMK2α
Hi there, I'd appreciate the recorded inhibition at 1 µM for every entry that follows.
Response body: numeric value in %, unit text excluded.

In: Supply reported inhibition at 1 µM belonging to this compound: "Cn1cnc2c(F)c(Nc3ccc(Br)cc3Cl)c(C(=O)NOCCO)cc21"
Out: -1.34

In: Give recorded inhibition at 1 µM. "FC(F)(F)c1ccc(CNc2ccc(Cc3c[nH]c4ncc(Cl)cc34)cn2)cn1"
Out: -4

In: Return inhibition at 1 µM for the following compound: "CCn1c(=O)c(-c2cc(NC(=O)Nc3ccccc3)c(F)cc2Br)cc2cnc(NC)cc21"
Out: -5.68

In: # return recorded inhibition at 1 µM for entry "CCN1CCN(c2ccc(Nc3cc(N(C)C(=O)Nc4c(Cl)c(OC)cc(OC)c4Cl)ncn3)cc2)CC1"
Out: -1.22
